Target: T1, FR1exFc (UniProt P11362 22-376, limits assumed)
T1 construct: extracellular domain; also called FGFR1/Fc; FR1/Fc; not shown: Fc part; the construct of FR1exFc is not described
T1 sequence (looked up): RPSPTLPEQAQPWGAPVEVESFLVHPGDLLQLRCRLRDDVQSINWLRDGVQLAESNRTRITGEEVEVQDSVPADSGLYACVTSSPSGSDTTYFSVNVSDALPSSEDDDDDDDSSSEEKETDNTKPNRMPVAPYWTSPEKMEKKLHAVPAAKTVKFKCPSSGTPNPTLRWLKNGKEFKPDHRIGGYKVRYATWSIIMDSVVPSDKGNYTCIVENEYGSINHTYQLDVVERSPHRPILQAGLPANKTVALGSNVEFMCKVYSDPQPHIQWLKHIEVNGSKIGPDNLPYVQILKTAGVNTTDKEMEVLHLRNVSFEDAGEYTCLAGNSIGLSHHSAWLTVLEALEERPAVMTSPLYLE
Assay: Affinity to FGFR1 (BIACORE and/or FACS)
pKd: −log10 of the molar value.

binder: MSPRO29 (Fab, V domains shown) VH: QVQLVQSGAEVKKPGASVKVSCKASGYTFTSYYMHWVRQAPGQGLEWMGWINPNSGGTNYAQKFQGRVTMTRDTSISTAYMELSSLRSEDTAVYYCARTWQYSYFYYLDGGYYFDIWGQGTLVTVSS VL: DIVLTQSPATLSLSPGERATLSCRASQSVSSSYLAWYQQKPGQAPRLLIYGASSRATGVPARFSGSGSGTDFTLTISSLEPEDFATYYCQQTNNAPVTFGQGTKVEIKR
pKd: 7.54
//
binder: MSPRO54 (Fab, V domains shown) VH: QVQLVQSGAEVKKPGASVKVSCKASGYTFTSYYMHWVRQAPGQGLEWMGWINPNSGGTNYAQKFQGRVTMTRDTSISTAYMELSSLRSEDTAVYYCARNMAYTNYQYVNMPHFDYWGQGTLVTVSS VL: DIELTQPPSVSVAPGQTARISCSGDALGDKYASWYQQKPGQAPVLVIYDDSDRPSGIPERFSGSNSGNTATLTISGTQAEDEADYYCQSYDYFKLVFGGGTKLTVLG
pKd: 8.60
//
binder: MSPRO28 (Fab, V domains shown) VH: QVQLVQSGAEVKKPGSSVKVSCKASGGTFSSYAISWVRQAPGQGLEWMGGIIPIFGTANYAQKFQGRVTITADESTSTAYMELSSLRSEDTAVYYCARGGGWVSHGYYYLFDLWGQGTLVTVSS VL: DIQMTQSPSSLSASVGDRVTITCRASQGISSYLAWYQQKPGKAPKLLIYAASSLQSGVPSRFSGSGSGTDFTLTISSLQPEDFAVYYCFQYGSIPPTFGQGTKVEIKR
pKd: 6.80
